Provide the recorded solubility for the entries that follow.
assay: Microscopy-based observation of compound dissolution / crystals in assay medium; type: physicochemical; details: compounds at 750 μM, read-out: solubility issues / crystals formed during the assays

QUERY: Consider the compound shown here: "Cc1nc2c(NCc3ccccc3Cl)ncnc2n1Cc1ccccc1Cl" What is its recorded solubility?
RESULT: < 750 µM

QUERY: Consider the compound shown here: "Clc1cccc(CNc2ncnc3c2nc(-c2ccccc2)n3Cc2cccc(Cl)c2)c1" What is its recorded solubility?
RESULT: < 750 µM

---

test system: Vero cells; assay type: cell-based; details: green monkey, 96 h
measured.endpoint: [TC50] Vero cells assays (µM)
Report the figure in µM without appending any unit label.

QUERY: Consider the compound shown here: "Clc1cccc(CNc2ncnc3c2ncn3Cc2cccc(Cl)c2)c1" What is its recorded [TC50] Vero cells assays?
RESULT: 346.30

QUERY: Consider the compound shown here: "Cc1nc2c(NCc3cccc(Cl)c3)ncnc2n1Cc1cccc(Cl)c1" What is its recorded [TC50] Vero cells assays?
RESULT: 60.11

QUERY: Consider the compound shown here: "Clc1ccc(CNc2ncnc3c2nc(-c2ccccc2)n3Cc2ccc(Cl)cc2)cc1" What is its recorded [TC50] Vero cells assays?
RESULT: 187.50

QUERY: Consider the compound shown here: O=C(Cn1ccnc1[N+](=O)[O-])NCc1ccccc1 [BNZ, benznidazole, reference compound] What is its recorded [TC50] Vero cells assays?
RESULT: 196.90

QUERY: Consider the compound shown here: "Cc1nc2c(NCc3ccccc3)ncnc2n1Cc1ccccc1" What is its recorded [TC50] Vero cells assays?
RESULT: 68.16

QUERY: Consider the compound shown here: "Cc1nc2c(NCCc3ccccc3)ncnc2n1CCc1ccccc1" What is its recorded [TC50] Vero cells assays?
RESULT: 55.91

QUERY: Consider the compound shown here: "Cc1nc2c(NCc3ccc(Cl)cc3)ncnc2n1Cc1ccc(Cl)cc1" What is its recorded [TC50] Vero cells assays?
RESULT: 27.01
